Test: Cytotoxicity against human HepG2 cells assessed as decrease in cell viability after 48 hrs by MTT assay
Format: toxicity, cell-based
Details: read-out: LD50
measurement-kind: CC50 at 48 h (µM)
# unit: µM | format: bare number

CC1(C)CC[C@]2(C(=O)NCc3cn(Cc4ccc(Cl)cc4)nn3)CC[C@]3(C)C(=CC[C@@H]4[C@@]5(C)CC[C@H](O)[C@@](C)(CO)[C@@H]5CC[C@]43C)[C@@H]2C1 ... 2.5
CC1(C)CC[C@]2(C(=O)OCc3ccc(Br)cc3)CC[C@]3(C)C(=CC[C@@H]4[C@@]5(C)CC[C@H](O)[C@@](C)(CO)[C@@H]5CC[C@]43C)[C@@H]2C1 ... 260
CC1(C)CC[C@]2(C(=O)OCc3cn(Cc4ccccc4[N+](=O)[O-])nn3)CC[C@]3(C)C(=CC[C@@H]4[C@@]5(C)CC[C@H](O)[C@@](C)(CO)[C@@H]5CC[C@]43C)[C@@H]2C1 ... 57

### Prompt Which CC50 at 48 h is listed for `COC(=O)CNC(=O)[C@]12CCC(C)(C)C[C@H]1C1=CC[C@@H]3[C@@]4(C)CC[C@H](O)[C@@](C)(CO)[C@@H]4CC[C@@]3(C)[C@]1(C)CC2` ?
### Response 60.6

### Prompt Form field: reported CC50 at 48 h of `CC1(C)CC[C@]2(C(=O)OCc3cccc([N+](=O)[O-])c3)CC[C@]3(C)C(=CC[C@@H]4[C@@]5(C)CC[C@H](O)[C@@](C)(CO)[C@@H]5CC[C@]43C)[C@@H]2C1`
### Response 70

### Prompt May I ask what CC50 at 48 h has been recorded for `CC1(C)CC[C@]2(C(=O)OCc3cn(Cc4cccc(Br)c4)nn3)CC[C@]3(C)C(=CC[C@@H]4[C@@]5(C)CC[C@H](O)[C@@](C)(CO)[C@@H]5CC[C@]43C)[C@@H]2C1` ?
### Response 19

* * *

Assay: Selectivity index, ratio of LD50 for African green monkey BGM cells to IC50 for Leishmania infantum MHOM/BR/70/BH46 promastigotes infected in dog DH82 cells
Type: toxicity, cell-based
Conditions: read-out: Ratio LD50/IC50
measurement-kind: selectivity ratio
Write the value as a bare number.

Here is how some compounds turned out for selectivity ratio.
CC1(C)CC[C@]2(C(=O)OCc3cn(Cc4ccccc4[N+](=O)[O-])nn3)CC[C@]3(C)C(=CC[C@@H]4[C@@]5(C)CC[C@H](O)[C@@](C)(CO)[C@@H]5CC[C@]43C)[C@@H]2C1 ... 1.3
CC1(C)CC[C@]2(C(=O)O)CC[C@]3(C)C(=CC[C@@H]4[C@@]5(C)CC[C@H](O)[C@@](C)(CO)[C@@H]5CC[C@]43C)[C@@H]2C1 ... 0.9
CC1(C)CC[C@]2(C(=O)OCc3ccc(Br)cc3)CC[C@]3(C)C(=CC[C@@H]4[C@@]5(C)CC[C@H](O)[C@@](C)(CO)[C@@H]5CC[C@]43C)[C@@H]2C1 ... 10
CC1(C)CC[C@]2(C(=O)NCc3cn(Cc4ccc(Cl)cc4)nn3)CC[C@]3(C)C(=CC[C@@H]4[C@@]5(C)CC[C@H](O)[C@@](C)(CO)[C@@H]5CC[C@]43C)[C@@H]2C1 ... 8.3
CC1(C)CC[C@]2(C(=O)OCc3cccc([N+](=O)[O-])c3)CC[C@]3(C)C(=CC[C@@H]4[C@@]5(C)CC[C@H](O)[C@@](C)(CO)[C@@H]5CC[C@]43C)[C@@H]2C1 ... 32

### Prompt So what does the record say about selectivity ratio for `CC1(C)CC[C@]2(C(=O)OCc3cn(Cc4ccc(F)cc4F)nn3)CC[C@]3(C)C(=CC[C@@H]4[C@@]5(C)CC[C@H](O)[C@@](C)(CO)[C@@H]5CC[C@]43C)[C@@H]2C1` ?
### Response 4.9

### Prompt Query: selectivity ratio; subject: `COC(=O)CNC(=O)[C@]12CCC(C)(C)C[C@H]1C1=CC[C@@H]3[C@@]4(C)CC[C@H](O)[C@@](C)(CO)[C@@H]4CC[C@@]3(C)[C@]1(C)CC2`
### Response 1

### Prompt Looking for the measured selectivity ratio of `CC1(C)CC[C@]2(C(=O)OCc3cn(Cc4cccc(Br)c4)nn3)CC[C@]3(C)C(=CC[C@@H]4[C@@]5(C)CC[C@H](O)[C@@](C)(CO)[C@@H]5CC[C@]43C)[C@@H]2C1` , can you help?
### Response 2

### Prompt Any idea what selectivity ratio was measured for `CC1(C)CC[C@]2(C(=O)NCc3cn(Cc4ccccc4[N+](=O)[O-])nn3)CC[C@]3(C)C(=CC[C@@H]4[C@@]5(C)CC[C@H](O)[C@@](C)(CO)[C@@H]5CC[C@]43C)[C@@H]2C1` ?
### Response 55.5

* * *

Attribute: IC50
System: Leishmania infantum
Assay: Antiparasitic activity against Leishmania infantum MHOM/BR/70/BH46 promastigotes infected in dog DH82 cells after 48 hrs by ELISA method
Assay type: functional, cell-based
Conditions: MHOM/BR/70/BH46, DH82, 48 h
State just the number; it will be interpreted in µM.

CC1(C)CC[C@]2(C(=O)OCc3cccc([N+](=O)[O-])c3)CC[C@]3(C)C(=CC[C@@H]4[C@@]5(C)CC[C@H](O)[C@@](C)(CO)[C@@H]5CC[C@]43C)[C@@H]2C1 ... 9.7
CC1(C)CC[C@]2(C(=O)NCc3cn(Cc4ccc(Cl)cc4)nn3)CC[C@]3(C)C(=CC[C@@H]4[C@@]5(C)CC[C@H](O)[C@@](C)(CO)[C@@H]5CC[C@]43C)[C@@H]2C1 ... 6
CC1(C)CC[C@]2(C(=O)OCc3cn(Cc4ccccc4[N+](=O)[O-])nn3)CC[C@]3(C)C(=CC[C@@H]4[C@@]5(C)CC[C@H](O)[C@@](C)(CO)[C@@H]5CC[C@]43C)[C@@H]2C1 ... 32

### Prompt Looking for the measured IC50 of `CC1(C)CC[C@]2(C(=O)OCc3cn(Cc4cccc(Br)c4)nn3)CC[C@]3(C)C(=CC[C@@H]4[C@@]5(C)CC[C@H](O)[C@@](C)(CO)[C@@H]5CC[C@]43C)[C@@H]2C1` , can you help?
### Response 38

### Prompt So what's the measured IC50 for this one? `CC1(C)CC[C@]2(C(=O)OCc3cn(Cc4ccc(F)cc4F)nn3)CC[C@]3(C)C(=CC[C@@H]4[C@@]5(C)CC[C@H](O)[C@@](C)(CO)[C@@H]5CC[C@]43C)[C@@H]2C1`
### Response 11

### Prompt Which IC50 is listed for `CC1(C)CC[C@]2(C(=O)NCc3cn(Cc4ccccc4[N+](=O)[O-])nn3)CC[C@]3(C)C(=CC[C@@H]4[C@@]5(C)CC[C@H](O)[C@@](C)(CO)[C@@H]5CC[C@]43C)[C@@H]2C1` ?
### Response 2

### Prompt // query IC50 value for entry `CC1(C)CC[C@]2(C(=O)OCc3c(Cl)cccc3Cl)CC[C@]3(C)C(=CC[C@@H]4[C@@]5(C)CC[C@H](O)[C@@](C)(CO)[C@@H]5CC[C@]43C)[C@@H]2C1`
### Response 307

### Prompt Any idea what IC50 was measured for CC1(C)CC[C@]2(C(=O)O)CC[C@]3(C)C(=CC[C@@H]4[C@@]5(C)CC[C@H](O)[C@@](C)(CO)[C@@H]5CC[C@]43C)[C@@H]2C1 [HEDERAGENIN] ?
### Response 61.6

### Prompt What value of measured IC50 is listed for `COc1cc(COC(=O)[C@]23CCC(C)(C)C[C@H]2C2=CC[C@@H]4[C@@]5(C)CC[C@H](O)[C@@](C)(CO)[C@@H]5CC[C@@]4(C)[C@]2(C)CC3)cc(OC)c1` ?
### Response 110

### Prompt Sample `CC1(C)CC[C@]2(C(=O)OCc3ccc(Br)cc3)CC[C@]3(C)C(=CC[C@@H]4[C@@]5(C)CC[C@H](O)[C@@](C)(CO)[C@@H]5CC[C@]43C)[C@@H]2C1` — what was its IC50?
### Response 12

### Prompt Reported IC50 for `COC(=O)CNC(=O)[C@]12CCC(C)(C)C[C@H]1C1=CC[C@@H]3[C@@]4(C)CC[C@H](O)[C@@](C)(CO)[C@@H]4CC[C@@]3(C)[C@]1(C)CC2` : what is it?
### Response 18

* * *

The following compounds are shown together with reported CC50 at 48 h values.
Test: Cytotoxicity against dog DH82 cells assessed as decrease in cell viability after 48 hrs by MTT assay
Format: toxicity, cell-based, Canis lupus familiaris
Conditions: read-out: LD50
Please state the number and follow it with the unit.

These recorded examples may help you get a feel for the data.
CC1(C)CC[C@]2(C(=O)NCc3cn(Cc4ccccc4[N+](=O)[O-])nn3)CC[C@]3(C)C(=CC[C@@H]4[C@@]5(C)CC[C@H](O)[C@@](C)(CO)[C@@H]5CC[C@]43C)[C@@H]2C1 ... 45 µM
CC1(C)CC[C@]2(C(=O)OCc3cn(Cc4cccc(Br)c4)nn3)CC[C@]3(C)C(=CC[C@@H]4[C@@]5(C)CC[C@H](O)[C@@](C)(CO)[C@@H]5CC[C@]43C)[C@@H]2C1 ... 21 µM
CC1(C)CC[C@]2(C(=O)OCc3cccc([N+](=O)[O-])c3)CC[C@]3(C)C(=CC[C@@H]4[C@@]5(C)CC[C@H](O)[C@@](C)(CO)[C@@H]5CC[C@]43C)[C@@H]2C1 ... 63 µM
CC1(C)CC[C@]2(C(=O)OCc3ccc(Br)cc3)CC[C@]3(C)C(=CC[C@@H]4[C@@]5(C)CC[C@H](O)[C@@](C)(CO)[C@@H]5CC[C@]43C)[C@@H]2C1 ... 83 µM
CC1(C)CC[C@]2(C(=O)NCc3cn(Cc4ccc(Cl)cc4)nn3)CC[C@]3(C)C(=CC[C@@H]4[C@@]5(C)CC[C@H](O)[C@@](C)(CO)[C@@H]5CC[C@]43C)[C@@H]2C1 ... 16 µM
CC1(C)CC[C@]2(C(=O)OCc3cn(Cc4ccccc4[N+](=O)[O-])nn3)CC[C@]3(C)C(=CC[C@@H]4[C@@]5(C)CC[C@H](O)[C@@](C)(CO)[C@@H]5CC[C@]43C)[C@@H]2C1 ... 212 µM

Next up:
### Prompt Any idea what its CC50 at 48 h is? The compound is `CC1(C)CC[C@]2(C(=O)OCc3cn(Cc4ccc(F)cc4F)nn3)CC[C@]3(C)C(=CC[C@@H]4[C@@]5(C)CC[C@H](O)[C@@](C)(CO)[C@@H]5CC[C@]43C)[C@@H]2C1`
### Response 66 µM
